Values were extracted from ChEMBL document CHEMBL1138114.

log10 of IC50 values for the compounds below.
biological target: Integrin alpha-V/beta-6 (Homo sapiens, UniProt P06756+P18564); test: Inhibition of Integrin alphav-beta6 receptor expressed in HT29 cell line
Sequence (P06756 31-889 limits assumed): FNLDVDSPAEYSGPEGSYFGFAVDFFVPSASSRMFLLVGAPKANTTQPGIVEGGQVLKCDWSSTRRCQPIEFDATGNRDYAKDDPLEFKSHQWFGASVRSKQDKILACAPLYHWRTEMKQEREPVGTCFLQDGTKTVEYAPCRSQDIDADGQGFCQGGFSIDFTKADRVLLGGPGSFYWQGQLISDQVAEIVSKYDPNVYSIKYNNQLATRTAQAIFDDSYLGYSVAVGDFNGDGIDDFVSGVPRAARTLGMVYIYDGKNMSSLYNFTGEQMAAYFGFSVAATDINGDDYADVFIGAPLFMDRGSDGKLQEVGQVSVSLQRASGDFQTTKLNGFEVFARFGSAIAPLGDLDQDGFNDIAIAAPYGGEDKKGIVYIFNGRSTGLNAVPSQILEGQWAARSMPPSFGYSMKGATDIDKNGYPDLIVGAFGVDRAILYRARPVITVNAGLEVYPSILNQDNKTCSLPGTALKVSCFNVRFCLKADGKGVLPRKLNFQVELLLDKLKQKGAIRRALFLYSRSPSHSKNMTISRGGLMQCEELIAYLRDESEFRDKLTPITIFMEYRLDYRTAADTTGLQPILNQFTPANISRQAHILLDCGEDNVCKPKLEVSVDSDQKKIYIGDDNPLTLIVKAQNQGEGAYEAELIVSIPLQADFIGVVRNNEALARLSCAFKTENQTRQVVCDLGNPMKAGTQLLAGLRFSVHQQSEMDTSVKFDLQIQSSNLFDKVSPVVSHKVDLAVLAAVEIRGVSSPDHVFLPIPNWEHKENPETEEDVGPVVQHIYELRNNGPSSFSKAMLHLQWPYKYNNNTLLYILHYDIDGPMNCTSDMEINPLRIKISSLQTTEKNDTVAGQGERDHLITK
Sequence (P06756 891-1048 limits assumed): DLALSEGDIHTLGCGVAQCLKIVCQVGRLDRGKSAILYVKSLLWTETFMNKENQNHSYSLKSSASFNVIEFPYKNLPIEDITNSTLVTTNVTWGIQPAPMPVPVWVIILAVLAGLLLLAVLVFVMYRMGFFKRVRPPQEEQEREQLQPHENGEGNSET
Sequence (P18564 22-788 limits assumed): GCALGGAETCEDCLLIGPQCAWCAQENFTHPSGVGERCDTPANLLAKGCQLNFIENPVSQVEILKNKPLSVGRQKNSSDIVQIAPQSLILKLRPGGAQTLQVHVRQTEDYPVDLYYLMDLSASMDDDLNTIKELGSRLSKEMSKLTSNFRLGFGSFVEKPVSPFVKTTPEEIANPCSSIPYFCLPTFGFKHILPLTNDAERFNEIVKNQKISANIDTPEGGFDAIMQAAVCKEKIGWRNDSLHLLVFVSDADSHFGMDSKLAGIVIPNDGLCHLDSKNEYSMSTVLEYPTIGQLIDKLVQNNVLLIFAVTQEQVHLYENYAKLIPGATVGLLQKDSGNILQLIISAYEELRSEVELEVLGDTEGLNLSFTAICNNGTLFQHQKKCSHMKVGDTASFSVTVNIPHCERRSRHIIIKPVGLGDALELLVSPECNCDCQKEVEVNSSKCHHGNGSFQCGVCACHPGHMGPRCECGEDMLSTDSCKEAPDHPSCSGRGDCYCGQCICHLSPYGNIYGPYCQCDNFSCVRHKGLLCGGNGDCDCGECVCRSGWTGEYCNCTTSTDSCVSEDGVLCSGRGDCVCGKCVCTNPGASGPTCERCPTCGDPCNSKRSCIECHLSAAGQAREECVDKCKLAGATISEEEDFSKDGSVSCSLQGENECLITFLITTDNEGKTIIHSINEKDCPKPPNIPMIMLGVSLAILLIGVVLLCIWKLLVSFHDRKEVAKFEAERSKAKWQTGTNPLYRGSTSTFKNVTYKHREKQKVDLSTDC
Scale: decimal log of IC50, IC50 in µM.

Provide the reported log10 of IC50 (system: Integrin alpha-V/beta-6 (Homo sapiens, UniProt P06756+P18564)) for O=C(O)CC(Cc1nc(CCCc2ccc3c(n2)NCCC3)no1)c1cccc(F)c1 (stereo not given) 0.57

Continuing:
Find the measured log10 of IC50 of O=C(O)CC(Cc1nc(CCCc2ccc3c(n2)NCCC3)no1)c1ccc2ncoc2c1 (stereo not given) with Integrin alpha-V/beta-6 (Homo sapiens, UniProt P06756+P18564) as test system. -0.31

Please respond with reported log10 of IC50 (system Integrin alpha-V/beta-6 (Homo sapiens, UniProt P06756+P18564)) for O=C(O)C[C@H](Cc1nc(CCCCNc2cc(N3CCOCC3)ccn2)no1)c1ccc2c(c1)OCO2 . 0.64

Consider the compound O=C(O)CC(Cc1nc(CCCc2ccc3c(n2)NCCC3)no1)c1cnc(C2CC2)s1 (stereo not given) tested on Integrin alpha-V/beta-6 (Homo sapiens, UniProt P06756+P18564); state its log10 of IC50. 0.20

Report log10 of IC50 under test system Integrin alpha-V/beta-6 (Homo sapiens, UniProt P06756+P18564) for O=C(O)C[C@H](Cc1nc(CCCCNc2cc(N3CCSCC3)ccn2)no1)c1ccc2c(c1)OCO2 . 0.43

Using Integrin alpha-V/beta-6 (Homo sapiens, UniProt P06756+P18564) as the test system, report measured log10 of IC50 of O=C(O)CC(Cc1nc(CCCc2ccc3c(n2)NCCC3)no1)c1cccnc1 (stereo not given) . 0.38

Report log10 of IC50 from Integrin alpha-V/beta-6 (Homo sapiens, UniProt P06756+P18564) testing of C#CC(CC(=O)O)Cc1nc(CCCc2ccc3c(n2)NCCC3)no1 (stereo not given) 0.80

Send back Integrin alpha-V/beta-6 (Homo sapiens, UniProt P06756+P18564) log10 of IC50 of O=C(O)C[C@H](Cc1nc(CCCc2ccc3c(n2)NCCC3)no1)c1ccc2c(c1)OCO2 only. 0.42

Would you please give the reported log10 of IC50 of O=C(O)CC(Cc1nc(CCCc2ccc3c(n2)NCCC3)no1)c1ccc2c(c1)OCC2 (stereo not given) with Integrin alpha-V/beta-6 (Homo sapiens, UniProt P06756+P18564)? 0.48

* * *

target: Integrin alpha-IIb/beta-3 (Homo sapiens, UniProt P05106+P08514); test: Inhibition of Integrin alpha-2b-beta-3 receptor by SPRA assay; format: protein-complex assay
Sequence (P08514 32-887 limits assumed, one chain of several): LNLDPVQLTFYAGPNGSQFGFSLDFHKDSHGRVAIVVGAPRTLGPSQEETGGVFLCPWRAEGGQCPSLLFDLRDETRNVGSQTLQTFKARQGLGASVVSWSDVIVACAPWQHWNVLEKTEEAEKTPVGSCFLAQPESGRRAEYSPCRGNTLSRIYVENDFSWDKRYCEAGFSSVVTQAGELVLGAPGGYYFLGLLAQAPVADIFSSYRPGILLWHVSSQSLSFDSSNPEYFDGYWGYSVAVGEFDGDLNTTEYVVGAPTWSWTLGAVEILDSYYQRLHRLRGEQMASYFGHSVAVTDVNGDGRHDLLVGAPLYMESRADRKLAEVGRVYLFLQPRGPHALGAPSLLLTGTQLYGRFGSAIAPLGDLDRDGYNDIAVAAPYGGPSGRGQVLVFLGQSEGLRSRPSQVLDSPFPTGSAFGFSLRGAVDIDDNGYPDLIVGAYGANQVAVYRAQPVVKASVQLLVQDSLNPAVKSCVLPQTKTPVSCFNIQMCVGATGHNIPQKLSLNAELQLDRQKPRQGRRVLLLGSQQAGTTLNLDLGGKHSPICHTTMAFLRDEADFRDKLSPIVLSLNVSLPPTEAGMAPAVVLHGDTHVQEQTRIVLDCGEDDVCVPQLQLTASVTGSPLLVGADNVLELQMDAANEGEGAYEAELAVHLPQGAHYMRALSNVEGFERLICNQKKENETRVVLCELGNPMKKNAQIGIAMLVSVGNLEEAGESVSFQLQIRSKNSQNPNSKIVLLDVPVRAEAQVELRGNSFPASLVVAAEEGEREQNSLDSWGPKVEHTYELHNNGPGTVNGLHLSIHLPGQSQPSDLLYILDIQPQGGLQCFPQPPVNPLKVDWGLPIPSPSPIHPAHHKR
Sequence (P08514 891-1039 limits assumed, one chain of several): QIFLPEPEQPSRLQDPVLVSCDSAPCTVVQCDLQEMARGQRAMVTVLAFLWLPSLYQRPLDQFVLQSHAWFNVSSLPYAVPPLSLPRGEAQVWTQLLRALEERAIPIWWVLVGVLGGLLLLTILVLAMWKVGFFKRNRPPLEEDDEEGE
PROPERTY: IC50 (nM)
Give the value in nM but do not write nM after it.

// Input: O=C(O)CC(Cc1nc(CCCc2ccc3c(n2)NCCC3)no1)c1cnc2ccccc2c1 (centres undefined) . Output its IC50 only. 18

Please give measured IC50 of the following entry: O=C(O)CC(Cc1nc(CCCc2ccc3c(n2)NCCC3)no1)c1cnc(C2CC2)s1 (centres undefined) 168

Look up and report measured IC50 for this entry: CC(C)(CC(=O)O)Cc1nc(CCCc2ccc3c(n2)NCCC3)no1 12600

Identify IC50 associated with the molecule CNc1cccc(CCCc2noc(CC(CC(=O)O)c3ccc4c(c3)OCO4)n2)n1 (centres undefined) 278

* * *

test: Bioavailability in rat at 5 mg/kg, iv; assay type: ADME, organism-based; settings: in vivo
bioavailability values by entry
Response body: numeric value in %, unit text excluded.

Sample answers from the record:
// fetch bioavailability given entry COc1ccc(C(CC(=O)O)Cc2nc(CCCc3ccc4c(n3)NCCC4)no2)cn1 (configuration not stated) 100

Retrieve bioavailability measured for O=C(O)C[C@H](Cc1nc(CCCc2ccc3c(n2)NCCC3)no1)c1ccc2c(c1)OCO2 and print it. 95

Tell me its bioavailability given O=C(O)CC(Cc1nc(CCCc2ccc3c(n2)NCCC3)no1)c1cnc2ccccc2c1 (configuration not stated) as the entry. 66

Assign bioavailability to the following record: O=C(O)C[C@H](Cc1nc(CCCCNc2cc(N3CCSCC3)ccn2)no1)c1ccc2c(c1)OCO2 29

For O=C(O)CC(Cc1nc(CCCc2ccc3c(n2)NCCC3)no1)c1cnc(C2CC2)s1 (configuration not stated) , write its bioavailability. 96

Others:
Name the recorded bioavailability of the molecule listed here: CN1CCNc2nc(CCCc3noc(CC(CC(=O)O)c4ccc5c(c4)OCO5)n3)ccc21 (configuration not stated) 77

Read off the recorded bioavailability for O=C(O)CC(Cc1nc(CCCc2ccc3c(n2)NCCC3)no1)c1ccc2c(c1)OCC2 (configuration not stated) 63

* * *

Listing of entries alongside the reported IC50.
molecular target: Integrin alpha-V/beta-3 (Homo sapiens, UniProt P05106+P06756); assay: Inhibition of Integrin alphav-beta3 receptor by SPRA assay; type: protein-complex assay
Sequence (P05106 27-788 limits assumed): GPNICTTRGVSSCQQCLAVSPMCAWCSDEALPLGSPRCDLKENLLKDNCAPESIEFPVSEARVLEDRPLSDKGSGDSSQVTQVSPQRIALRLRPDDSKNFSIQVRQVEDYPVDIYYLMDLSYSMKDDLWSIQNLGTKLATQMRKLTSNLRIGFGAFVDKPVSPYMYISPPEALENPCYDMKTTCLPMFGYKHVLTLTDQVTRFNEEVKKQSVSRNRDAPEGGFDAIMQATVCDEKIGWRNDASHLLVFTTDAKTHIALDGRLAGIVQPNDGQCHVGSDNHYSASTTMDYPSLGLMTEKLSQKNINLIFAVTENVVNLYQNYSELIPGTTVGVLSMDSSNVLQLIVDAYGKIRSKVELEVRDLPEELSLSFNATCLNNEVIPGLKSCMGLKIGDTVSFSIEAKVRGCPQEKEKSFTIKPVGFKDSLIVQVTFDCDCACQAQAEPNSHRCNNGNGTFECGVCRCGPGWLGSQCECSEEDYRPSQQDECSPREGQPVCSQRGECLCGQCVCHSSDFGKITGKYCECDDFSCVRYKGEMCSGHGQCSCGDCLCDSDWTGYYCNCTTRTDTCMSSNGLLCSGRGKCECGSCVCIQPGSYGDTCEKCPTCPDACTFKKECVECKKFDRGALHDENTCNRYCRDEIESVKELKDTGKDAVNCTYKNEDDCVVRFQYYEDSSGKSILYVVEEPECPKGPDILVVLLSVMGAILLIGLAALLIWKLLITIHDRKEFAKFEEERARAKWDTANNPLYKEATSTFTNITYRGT
Sequence (P06756 31-889 limits assumed): as the sequence (P06756 31-889 limits assumed) above
Sequence (P06756 891-1048 limits assumed): as the sequence (P06756 891-1048 limits assumed) above
Write it as a number; the unit nM goes unstated.

Determine from records and report IC50 for O=C(O)CC(Cc1nc(CCCc2ccc3c(n2)NCCC3)no1)c1ccc2ncoc2c1 (stereo not given) 0.5

For the compound O=C(O)C[C@H](Cc1nc(CCCCNc2cc(N3CCOCC3)ccn2)no1)c1ccc2c(c1)OCO2 , give its reported IC50. 0.78

Hello, please tell me recorded IC50 for this one: C#CC(CC(=O)O)Cc1nc(CCCc2ccc3c(n2)NCCC3)no1 (stereo not given) 8.7

Return the recorded IC50 value; entry: O=C(O)CC(Cc1nc(CCCc2ccc3c(n2)NCCC3)no1)c1ccccc1 (stereo not given) 1.8

Give IC50 for the following compound: CN1CCNc2nc(CCCc3noc(CC(CC(=O)O)c4ccc5c(c4)OCO5)n3)ccc21 (stereo not given) 1.7

Determine from records and report IC50 for O=C(O)CC(Cc1nc(CCCc2ccc3c(n2)NCCC3)no1)c1cnn(-c2ccccc2)c1 (stereo not given) 1.2

Look up IC50 of COc1ccc(C(CC(=O)O)Cc2nc(CCCc3ccc4c(n3)NCCC4)no2)cn1 (stereo not given) and report it. 1

* * *

target: Integrin alpha-IIb/beta-3 (Homo sapiens, UniProt P05106+P08514); assay: Inhibition of Integrin alpha-2b-beta-3 receptor by SPRA assay; assay type: protein-complex assay
PROPERTY: log10(IC50) (log10 of the value in nM)
Please note: log10 values; quantity IC50; unit nM.

Known results for molecules:
Identify the reported log10(IC50) for the following entry. O=C(O)CC(Cc1nc(CCCc2ccc3c(n2)NCCC3)no1)c1ccc2ncoc2c1 (configuration not stated) 1.82

Read the entry O=C(O)C[C@H](Cc1nc(CCCCNc2cc(N3CCSCC3)ccn2)no1)c1ccc2c(c1)OCO2 and write its reported log10(IC50). 1.34

Output measured log10(IC50) for this item: Cc1ncc(C(CC(=O)O)Cc2nc(CCCc3ccc4c(n3)NCCC4)no2)s1 (configuration not stated) 2.63

Continuing:
Quote log10(IC50) reported for O=C(O)CC(Cc1nc(CCCc2ccc3c(n2)NCCC3)no1)c1cccnc1 (configuration not stated) please. 2.68

Fill in reported log10(IC50) for this entry: O=C(O)CC(Cc1nc(CCCc2ccc3c(n2)NCCC3)no1)c1ccc2c(c1)OCC2 (configuration not stated) 2.35

Give a short answer stating reported log10(IC50) for CC(CC(=O)O)Cc1nc(CCCc2ccc3c(n2)NCCC3)no1 (configuration not stated) . 3.97

Specify measured log10(IC50) for CC(CC(=O)O)(Cc1nc(CCCc2ccc3c(n2)NCCC3)no1)c1ccccc1 (configuration not stated) . 4.55

Determine from records and report log10(IC50) for O=C(O)C[C@H](Cc1nc(CCCc2ccc3c(n2)NCCC3)no1)c1ccc2c(c1)OCO2 1.43

Output measured log10(IC50) for this item: O=C(O)CC(Cc1nc(CCCc2ccc3c(n2)NCCC3)no1)c1cccc(F)c1 (configuration not stated) 2.62

Retrieve log10(IC50) measured for O=C(O)CCCc1nc(CCCc2ccc3c(n2)NCCC3)no1 and print it. 4.51

Determine its reported log10(IC50): COc1ccnc(NCCCCc2noc(C[C@@H](CC(=O)O)c3ccc4c(c3)OCO4)n2)c1 1.81

Using the record for O=C(O)C[C@H](Cc1nc(CCCCNc2ccccn2)no1)c1ccc2c(c1)OCO2 , state its measured log10(IC50). 2.10

* * *

target: Integrin alpha-V/beta-5 (Homo sapiens, UniProt P06756+P18084); test: Inhibition of Integrin alphav-beta5 receptor expressed in HEK293 cell line
Sequence (P18084 24-799 limits assumed, one chain of several): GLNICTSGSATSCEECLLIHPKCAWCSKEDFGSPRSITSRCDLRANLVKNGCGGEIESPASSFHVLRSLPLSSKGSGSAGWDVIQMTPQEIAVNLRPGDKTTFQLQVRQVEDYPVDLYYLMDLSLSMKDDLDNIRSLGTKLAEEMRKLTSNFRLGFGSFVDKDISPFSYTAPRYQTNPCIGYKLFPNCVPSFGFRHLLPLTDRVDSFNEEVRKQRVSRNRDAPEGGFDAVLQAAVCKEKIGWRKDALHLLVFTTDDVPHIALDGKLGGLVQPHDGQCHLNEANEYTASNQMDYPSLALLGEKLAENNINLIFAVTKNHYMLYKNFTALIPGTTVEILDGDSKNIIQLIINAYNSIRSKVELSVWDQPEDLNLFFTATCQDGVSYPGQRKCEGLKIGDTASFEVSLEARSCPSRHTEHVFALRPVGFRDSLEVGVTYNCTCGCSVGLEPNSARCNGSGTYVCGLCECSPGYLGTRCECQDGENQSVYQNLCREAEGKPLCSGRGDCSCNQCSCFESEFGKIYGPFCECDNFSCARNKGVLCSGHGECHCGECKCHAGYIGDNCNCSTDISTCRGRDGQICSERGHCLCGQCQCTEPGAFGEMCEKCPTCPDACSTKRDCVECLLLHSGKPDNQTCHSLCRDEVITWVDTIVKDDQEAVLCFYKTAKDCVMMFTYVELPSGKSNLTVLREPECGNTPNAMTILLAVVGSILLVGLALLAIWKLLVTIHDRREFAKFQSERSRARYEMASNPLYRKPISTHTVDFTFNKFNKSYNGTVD
Each entry below lists one item and its recorded IC50 value.
The figure you give is taken to be in nM; do not add the unit.

Study these solved cases before continuing.
Give the reported IC50 for this compound. O=C(O)CC(Cc1nc(CCCc2ccc3c(n2)NCCC3)no1)c1cccc(F)c1 (centres undefined) 3.7

Give me measured IC50, please, for this compound: O=C(O)C[C@H](Cc1nc(CCCCNc2cc(N3CCOCC3)ccn2)no1)c1ccc2c(c1)OCO2 4.6

Retrieve IC50 measured for O=C(O)C[C@H](Cc1nc(CCCc2ccc3c(n2)NCCC3)no1)c1ccc2c(c1)OCO2 and print it. 1.7

Below: the item to evaluate.
Please report the measured IC50 for C#CC(CC(=O)O)Cc1nc(CCCc2ccc3c(n2)NCCC3)no1 (centres undefined) 4
